- Test system: ERK1/2
- Assay text: Inhibition of ERK activation in CSF1-stimulated RAW264.7 cells (western blot)
- Assay type: cell-based, mouse
- Details: mean ± SD (replicates), read-out: Mean kinase IC50 values: P(T185,202;Y187,204) ERK1/2 [WB]
Below, each of the molecules is paired with its reported IC50 value.
Readout type: IC50 (nM)

[[record]]
query_smiles = "CNC(=O)c1cc(Oc2ccc(NC(=O)Nc3ccc(Cl)c(C(F)(F)F)c3)c(F)c2)cc[n+]1[O-]"
measured_target = "ERK1/2"
assay_value = 239

[[record]]
query_smiles = "NC(=O)c1cc(Oc2ccc(NC(=O)Nc3ccc(Cl)c(C(F)(F)F)c3)c(F)c2)cc[n+]1[O-]"
measured_target = "ERK1/2"
assay_value = 276

[[record]]
query_smiles = "NC(=O)c1cc(Oc2ccc(NC(=O)Nc3ccc(Cl)c(C(F)(F)F)c3)c(F)c2)ccn1"
measured_target = "ERK1/2"
assay_value = 783


====

Below, each of the compounds is paired with its reported pIC50 value.
- Measured target: murine CSF1R (Mus musculus, UniProt P09581)
- Construct: Western blot analysis of total lysates (40 µg/lane) from mouse RAW264.7 cells treated as indicated; endogenous in cells; host or cells: RAW264.7 (murine macrophages)
- Sequence (P09581 20-977): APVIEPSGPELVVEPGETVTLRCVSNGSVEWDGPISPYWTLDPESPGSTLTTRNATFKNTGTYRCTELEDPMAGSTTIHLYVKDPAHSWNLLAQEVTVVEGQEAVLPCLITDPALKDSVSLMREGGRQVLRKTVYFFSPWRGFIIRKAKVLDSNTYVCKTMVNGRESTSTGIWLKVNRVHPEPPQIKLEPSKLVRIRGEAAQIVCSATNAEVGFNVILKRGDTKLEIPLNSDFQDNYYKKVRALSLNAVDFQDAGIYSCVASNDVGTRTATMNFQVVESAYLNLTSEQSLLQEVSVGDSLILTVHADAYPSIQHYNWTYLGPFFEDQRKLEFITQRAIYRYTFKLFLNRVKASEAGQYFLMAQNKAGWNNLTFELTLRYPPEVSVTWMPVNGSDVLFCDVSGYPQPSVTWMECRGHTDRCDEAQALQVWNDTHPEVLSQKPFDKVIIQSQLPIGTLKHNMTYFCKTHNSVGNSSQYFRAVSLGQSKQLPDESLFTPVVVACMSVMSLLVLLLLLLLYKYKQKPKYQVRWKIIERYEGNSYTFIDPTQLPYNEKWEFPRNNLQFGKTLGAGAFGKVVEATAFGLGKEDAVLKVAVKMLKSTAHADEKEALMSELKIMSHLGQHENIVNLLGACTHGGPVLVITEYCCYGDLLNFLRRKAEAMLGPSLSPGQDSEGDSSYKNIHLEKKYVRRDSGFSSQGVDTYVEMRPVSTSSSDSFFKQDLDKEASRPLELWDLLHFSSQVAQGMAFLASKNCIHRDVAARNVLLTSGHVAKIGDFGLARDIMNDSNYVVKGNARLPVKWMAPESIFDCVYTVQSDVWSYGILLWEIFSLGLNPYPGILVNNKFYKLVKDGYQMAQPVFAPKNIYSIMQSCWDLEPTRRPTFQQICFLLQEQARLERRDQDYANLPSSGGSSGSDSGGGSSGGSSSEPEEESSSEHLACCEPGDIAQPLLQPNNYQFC
- Assay text: CSF1R inhibition in RAW264.7 cells (western blot of pCSF1R)
- Type: cell-based
- Details: RAW264.7 cells, drug 1 h, CSF1 100 ng/mL 2 min; mean ± SD (replicates); M-4, M-5 from pCSF1R bands without relating to total CSF1R; read-out: Mean kinase IC50 values: P(Y721)CSF1R [WB]
pIC50: −log10 of the molar value.
Readout type: pIC50

[[record]]
query_smiles = "NC(=O)c1cc(Oc2ccc(NC(=O)Nc3ccc(Cl)c(C(F)(F)F)c3)c(F)c2)cc[n+]1[O-]"
assay_value = 7.74

[[record]]
query_smiles = "NC(=O)c1cc(Oc2ccc(NC(=O)Nc3ccc(Cl)c(C(F)(F)F)c3)c(F)c2)ccn1"
assay_value = 6.73

[[record]]
query_smiles = "CNC(=O)c1cc(Oc2ccc(NC(=O)Nc3ccc(Cl)c(C(F)(F)F)c3)c(F)c2)ccn1"
assay_value = 7.57

[[record]]
query_smiles = "CNC(=O)c1cc(Oc2ccc(NC(=O)Nc3ccc(Cl)c(C(F)(F)F)c3)c(F)c2)cc[n+]1[O-]"
assay_value = 7.74


These entries and their values trace back to paper PMC10069031.
